TEST SUMMARY: Equilibrium aqueous solubility of the compound in phosphate buffer of pH 7.4 after 24 hrs by shake-flask method
Type: physicochemical

ENTRY SMILES: CCC(=O)N[C@@H](Cc1nc2ccc(Cl)cc2s1)C(=O)N[C@H](C(=O)N[C@@H](CCCCN)C(=O)N[C@@H]1CCOc2ccccc21)C1CCOCC1
UNITS OF MEASURE: µM
solubility thermodynamic at 24 h: 54

###

SUBJECT OF TEST: UniProtKB Q96GG9
Sequence (Q96GG9 whole entry, the tested form may be a part): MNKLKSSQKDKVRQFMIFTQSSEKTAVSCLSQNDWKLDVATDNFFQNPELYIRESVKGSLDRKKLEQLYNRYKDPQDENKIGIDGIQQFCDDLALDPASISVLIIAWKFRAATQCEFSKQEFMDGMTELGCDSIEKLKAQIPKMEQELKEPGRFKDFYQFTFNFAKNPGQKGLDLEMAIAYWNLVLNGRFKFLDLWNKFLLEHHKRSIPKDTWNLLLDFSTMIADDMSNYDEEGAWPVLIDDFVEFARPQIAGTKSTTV
TEST SUMMARY: Displacement of (S)-N1-((19S,22S)-26-Amino-19-carbamoyl-1-(3',6'-dihydroxy-3-oxo-3H-spiro[isobenzofuran-1,9'-xanthen]-5-yl)-1,13,21-trioxo-5,8,11-trioxa-2,14,20-triazahexacosan-22-yl)-2-((2S,5S,8S,11S,14S,17S,20S,23S,26S)-2-(3-amino-3-oxopropyl)-5,20-bis(4-aminobutyl)-14-benzyl-23-((S)-sec-butyl)-11-(hydroxymethyl)-8,17-diisobutyl-26-(naphthalen-2-ylmethyl)-4,7,10,13,16,19,22,25,28-nonaoxo-3,6,9,12,15,18,21,24,27-nonaazanonacosanamido)pentanediamide from recombinant N-terminal His6-tagged human DCN1 (58 to 259 residues) expressed in Escherichia coli Rosetta2 cells after 30 mins by fluorescence polarization assay
Starred links: 1 amine or outer side, 2 acyl side, 3 side chain; linkers in the order of their positions; H or OH if unused. Non-standard residues stand in square brackets, D forms with d. Residues, ends and D or L forms follow the SMILES beside them. *: point of attachment. 2Nal = N[C@@H](Cc1ccc2ccccc2c1)C(=O)O; Cyclopropanecarbonyl = O=C(C1CC1)*; NHPhenethyl = c1ccc(CCN*)cc1; Isobutyryl = CC(C)C(=O)*; CO = O=C([*:1])[*:2]; NHBn = c1ccc(CN*)cc1; Propionyl = CCC(=O)*; Butyryl = CCCC(=O)*; NHPh = c1ccc(N*)cc1; For = O=C*

MOLECULE: CCC(=O)N[C@@H](Cc1nc2ccc(Cl)cc2s1)C(=O)N[C@H](C(=O)N[C@@H](CCCCN)C(=O)NC(c1ccccc1)c1ccccc1)C1CCCC1
CENSORING OPERATOR: <
Ki, nM: 50
//
MOLECULE: CCC(=O)N[C@@H](Cc1ccc2ccccc2c1)C(=O)N[C@@H](CC(C)(C)C)C(=O)N[C@@H](CCCCN)C(=O)NC(c1ccccc1)c1ccccc1
CENSORING OPERATOR: =
Ki, nM: 42.9
//
MOLECULE: CCC(=O)N[C@@H](Cc1ccc2ccccc2c1)C(=O)N[C@H](C(=O)N[C@@H](CCCCN)C(=O)N[C@@H]1CCc2ccccc21)[C@@H](C)CC
CENSORING OPERATOR: =
Ki, nM: 160
//
MOLECULE: CCC(=O)N[C@@H](Cc1ccc2ccccc2c1)C(=O)N[C@H](C(=O)N[C@@H](CCCCN)C(=O)NC(c1ccccc1)c1ccccc1)[C@@H](C)CC
CENSORING OPERATOR: =
Ki, nM: 97
//
MOLECULE: CC[C@H](C)[C@H](NC(=O)[C@H](Cc1ccc2ccccc2c1)NC(=O)C(C)C)C(=O)N[C@@H](CCCCN)C(=O)N[C@@H](CC(C)C)C(N)=O (Isobutyryl-[2Nal]IKL-NH2)
CENSORING OPERATOR: =
Ki, nM: 3500
//
MOLECULE: CCC(=O)N[C@@H](Cc1ccc2ccccc2c1)C(=O)N[C@H](C(=O)N[C@@H](CCCCN)C(=O)N[C@H]1CCc2ccccc21)[C@@H](C)CC
CENSORING OPERATOR: =
Ki, nM: 380
//
MOLECULE: CCC(=O)N[C@@H](Cc1ccc2ccccc2c1)C(=O)N[C@H](C(=O)N[C@@H](CCCCN)C(=O)NC(c1ccccc1)c1ccccc1)C1CCCC1
CENSORING OPERATOR: =
Ki, nM: 36.3
//
MOLECULE: CC[C@H](C)[C@H](NC(=O)[C@H](Cc1ccc2ccccc2c1)NC(=O)C1CC1)C(=O)N[C@@H](CCCCN)C(=O)N[C@@H](CC(C)C)C(N)=O (Cyclopropanecarbonyl-[2Nal]IKL-NH2)
CENSORING OPERATOR: =
Ki, nM: 5400
//
MOLECULE: CCCC(=O)N[C@@H](Cc1ccc2ccccc2c1)C(=O)N[C@H](C(=O)N[C@@H](CCCCN)C(=O)N[C@@H](CC(C)C)C(N)=O)[C@@H](C)CC (Butyryl-[2Nal]IKL-NH2)
CENSORING OPERATOR: =
Ki, nM: 8000
//
MOLECULE: CC[C@H](C)[C@H](NC(=O)[C@H](CCSC)NC(C)=O)C(=O)N[C@@H](CCCCN)C(=O)N[C@@H](CC(C)C)C(N)=O (Ac-MIKL-NH2)
CENSORING OPERATOR: =
Ki, nM: 130000
//
MOLECULE: CCC(=O)N[C@@H](Cc1ccc2ccccc2c1)C(=O)N[C@H](C(=O)N[C@@H](CCCCN)C(=O)NC(c1ccccc1)c1ccccc1)C1CCCCC1
CENSORING OPERATOR: =
Ki, nM: 97.3
//
MOLECULE: CCC(=O)N[C@@H](Cc1ccc2ccccc2c1)C(=O)N[C@@H](Cc1cccs1)C(=O)N[C@@H](CCCCN)C(=O)NC(c1ccccc1)c1ccccc1
CENSORING OPERATOR: =
Ki, nM: 174
//
MOLECULE: CCC(=O)N[C@@H](Cc1nc2cc(F)ccc2s1)C(=O)N[C@H](C(=O)N[C@@H](CCCCN)C(=O)NC(c1ccccc1)c1ccccc1)C1CCCC1
CENSORING OPERATOR: =
Ki, nM: 224
//
MOLECULE: CCC(=O)N[C@@H](Cc1nc2ccccc2s1)C(=O)N[C@H](C(=O)N[C@@H](CCCCN)C(=O)NC(c1ccccc1)c1ccccc1)C1CCCC1
CENSORING OPERATOR: =
Ki, nM: 50.7
//
MOLECULE: CCC(=O)N[C@@H](Cc1ccc2ccccc2c1)C(=O)N[C@H](C(=O)N[C@@H](CCCCN)C(=O)NCc1ccccc1)[C@@H](C)CC (Propionyl-[2Nal]-Ile-Lys-NHBn)
CENSORING OPERATOR: =
Ki, nM: 810
//
MOLECULE: CC[C@H](C)[C@H](NC(=O)[C@H](Cc1ccc2ccccc2c1)NC(=O)NC)C(=O)N[C@@H](CCCCN)C(=O)N[C@@H](CC(C)C)C(N)=O ({NHMe-CO}-[2Nal]IKL-NH2)
CENSORING OPERATOR: =
Ki, nM: 4000
//
MOLECULE: CCC(=O)N[C@@H](Cc1ccc2ccccc2c1)C(=O)N[C@H](C(=O)N[C@@H](CCCCN)C(=O)NCCc1ccccc1)[C@@H](C)CC (Propionyl-[2Nal]-Ile-Lys-NHPhenethyl)
CENSORING OPERATOR: =
Ki, nM: 2500
//
MOLECULE: CCC(=O)N[C@@H](Cc1ccc2ccccc2c1)C(=O)N[C@@H](CC1CCCCC1)C(=O)N[C@@H](CCCCN)C(=O)NC(c1ccccc1)c1ccccc1
CENSORING OPERATOR: =
Ki, nM: 44.3
//
MOLECULE: CCC(=O)N[C@@H](Cc1ccc2ccccc2c1)C(=O)N[C@H](C(=O)N[C@@H](CCCCN)C(=O)N[C@@H](CC(C)C)C(N)=O)[C@@H](C)CC (Propionyl-[2Nal]IKL-NH2)
CENSORING OPERATOR: =
Ki, nM: 1100
//
MOLECULE: CCC(=O)N[C@@H](Cc1nc2c(F)cccc2s1)C(=O)N[C@H](C(=O)N[C@@H](CCCCN)C(=O)NC(c1ccccc1)c1ccccc1)C1CCCC1
CENSORING OPERATOR: =
Ki, nM: 1030
//
MOLECULE: CCC(=O)N[C@@H](Cc1ccc2ccccc2c1)C(=O)N[C@H](C(=O)N[C@@H](CCCCN)C(=O)N[C@H]1CCCc2ccccc21)[C@@H](C)CC
CENSORING OPERATOR: =
Ki, nM: 140
//
MOLECULE: CCC(=O)N[C@@H](Cc1ccc2ccccc2c1)C(=O)N[C@H](C(=O)N[C@@H](CCCCN)C(=O)Nc1ccccc1)[C@@H](C)CC (Propionyl-[2Nal]-Ile-Lys-NHPh)
CENSORING OPERATOR: =
Ki, nM: 7500
//
MOLECULE: CCC(=O)N[C@@H](Cc1nc2cc(Cl)ccc2s1)C(=O)N[C@H](C(=O)N[C@@H](CCCCN)C(=O)NC(c1ccccc1)c1ccccc1)C1CCCC1
CENSORING OPERATOR: =
Ki, nM: 88.6
//
MOLECULE: CC[C@H](C)[C@H](NC(=O)[C@H](Cc1ccc2ccccc2c1)NC=O)C(=O)N[C@@H](CCCCN)C(=O)N[C@@H](CC(C)C)C(N)=O (For-[2Nal]IKL-NH2)
CENSORING OPERATOR: =
Ki, nM: 27500
//
MOLECULE: CCC(=O)N[C@@H](Cc1ccc2ccccc2c1)C(=O)N[C@H](C(=O)N[C@@H](CCCCN)C(=O)N[C@@H]1CCCc2ccccc21)[C@@H](C)CC
CENSORING OPERATOR: =
Ki, nM: 84
